Hello, the source for this data is a melting point compilation (Tetko et al.; mined from patent text by program, amines drawn as free bases though some values may be those of a salt), in case you need it.

// melting point lookup, one value per entry

A selection of reference data follows.
- Oc1c(C(O)C(F)(F)F)cnc2c(-c3cc(-c4ccccc4)cs3)cnn12 (stereo unspecified): 265 to 290 °C
- COc1cc(OCc2ccccc2)ccc1S(=O)(=O)Cl: 95 °C
- Cc1ccc(N2CCN(CCCc3ccc(C4CCC(=O)N4)cc3)CC2)cc1 (stereo unspecified): 143 to 145 °C
- O=C(c1ccc(O)cc1)c1ccc(Cl)cc1Cl: 140 °C

Need melting point, item CC(=O)CN1CCNC1=Nc1cc2c(cc1Br)OCCO2
98 to 100 °C

Okay, and CC=Cc1cccc(Oc2ccccc2Cl)c1OC ?
61 to 62 °C

Okay, and Cc1c(-c2ccccc2)oc2c(CN=[N+]=[N-])cccc2c1=O ?
132 to 134 °C

Okay, and CC1(C)CCC(C)(C)c2cc(Oc3ccc(C=O)cc3)ccc21 ?
75 to 76 °C
